Test: Pharmacokinetic study in Sprague Dawley rats
Type: in vivo
Conditions: rat, plasma, Oral (5 mg/kg)
MEASURED ATTRIBUTE: bioavailability (%)

[2H]C([2H])([2H])CC(=O)c1cnc(Nc2cccc(C#N)n2)cc1Nc1cccc(-c2ncn(C([2H])([2H])[2H])n2)c1OC    16.9
[2H]C([2H])([2H])CC(=O)c1cnc(Nc2cccc(C#N)n2)cc1Nc1nccc(-c2ncn(C([2H])([2H])[2H])n2)c1OC    18.4
[2H]C([2H])([2H])CC(=O)c1cnc(NC(=O)C2CC2)cc1Nc1cccc(-c2ncn(C([2H])([2H])[2H])n2)c1OC    46.7
[2H]C([2H])([2H])CC(=O)c1cnc(Nc2ccc(C(C)(C)O)c(F)n2)cc1Nc1cccc(-c2ncn(C([2H])([2H])[2H])n2)c1OC    8.35
[2H]C([2H])([2H])CC(=O)c1cnc(NC(=O)C2CC2)cc1Nc1nccc(-c2ncn(C([2H])([2H])[2H])n2)c1OC    42.7
[2H]C([2H])([2H])CC(=O)c1cnc(Nc2ccc(C(C)(C)O)c(F)n2)cc1Nc1nccc(-c2ncn(C([2H])([2H])[2H])n2)c1OC    18.7

====

Cmax: recorded values
Test: Pharmacokinetic study in C57BL/6 mice
Type: in vivo
Conditions: male, mouse, plasma, Oral (10 mg/kg), read-out: C0 or Cmax (Cmax)
MEASURED ATTRIBUTE: Cmax

[2H]C([2H])([2H])CC(=O)c1cnc(NC(=O)C2CC2)cc1Nc1nccc(-c2ncn(C([2H])([2H])[2H])n2)c1OC    4190 ng/mL
[2H]C([2H])([2H])CC(=O)c1cnc(NC(=O)C2CC2)cc1Nc1cccc(-c2ncn(C([2H])([2H])[2H])n2)c1OC    4300 ng/mL
[2H]C([2H])([2H])CC(=O)c1cnc(Nc2ccc(C(C)(C)O)c(F)n2)cc1Nc1cccc(-c2ncn(C([2H])([2H])[2H])n2)c1OC    1900 ng/mL

====

Experiment: Pharmacokinetic study in cynomolgus monkeys
Format: in vivo
Settings: cynomolgus monkey, plasma, iv, I.V. (1 mg/kg)
half-life: recorded values
MEASURED ATTRIBUTE: half-life (h)

[2H]C([2H])([2H])CC(=O)c1cnc(NC(=O)C2CC2)cc1Nc1nccc(-c2ncn(C([2H])([2H])[2H])n2)c1OC [Example 200]    9.35
[2H]C([2H])([2H])CC(=O)c1cnc(NC(=O)C2CC2)cc1Nc1cccc(-c2ncn(C([2H])([2H])[2H])n2)c1OC [Example 195]    7.65
[2H]C([2H])([2H])CC(=O)c1cnc(Nc2ccc(C(O)(C([2H])([2H])[2H])C([2H])([2H])[2H])c(F)n2)cc1Nc1ncccc1S(C)(=O)=O [Example 203]    0.951
[2H]C([2H])([2H])CC(=O)c1cnc(Nc2ccc(C(C)(C)O)c(F)n2)cc1Nc1nccc(-c2ncn(C([2H])([2H])[2H])n2)c1OC [Example 201]    1.81
[2H]C([2H])([2H])CC(=O)c1cnc(Nc2cccc(C#N)n2)cc1Nc1cccc(-c2ncn(C([2H])([2H])[2H])n2)c1OC [Example 198]    1.45

====

Assay: Pharmacokinetic study in Beagle dogs
Format: in vivo
Conditions: dog, plasma, iv, I.V. (0.5 mg/kg)
MEASURED ATTRIBUTE: half-life (min)

[2H]C([2H])([2H])CC(=O)c1cnc(NC(=O)C2CC2)cc1Nc1nccc(-c2ncn(C([2H])([2H])[2H])n2)c1OC [Example 200]    690

====

Assay: Pharmacokinetic study in cynomolgus monkeys
Assay type: in vivo
Details: cynomolgus monkey, plasma, Oral (2 mg/kg), NA: no detectable
MEASURED ATTRIBUTE: Tmax (h)

[2H]C([2H])([2H])CC(=O)c1cnc(Nc2cccc(C#N)n2)cc1Nc1cccc(-c2ncn(C([2H])([2H])[2H])n2)c1OC    4
[2H]C([2H])([2H])CC(=O)c1cnc(Nc2ccc(C(C)(C)O)c(F)n2)cc1Nc1nccc(-c2ncn(C([2H])([2H])[2H])n2)c1OC    2.33
[2H]C([2H])([2H])CC(=O)c1cnc(NC(=O)C2CC2)cc1Nc1cccc(-c2ncn(C([2H])([2H])[2H])n2)c1OC    4
[2H]C([2H])([2H])CC(=O)c1cnc(NC(=O)C2CC2)cc1Nc1nccc(-c2ncn(C([2H])([2H])[2H])n2)c1OC    2

====

Experiment: Pharmacokinetic study in Beagle dogs
Type: in vivo
Settings: dog, plasma, iv, I.V. (1 mg/kg), read-out: C0 or Cmax (C0)
Cmax: recorded values
MEASURED ATTRIBUTE: Cmax (ng/mL)

[2H]C([2H])([2H])CC(=O)c1cnc(Nc2cccc(C#N)n2)cc1Nc1nccc(-c2ncn(C([2H])([2H])[2H])n2)c1OC [Example 199]    334
[2H]C([2H])([2H])CC(=O)c1cnc(Nc2cccc(C#N)n2)cc1Nc1cccc(-c2ncn(C([2H])([2H])[2H])n2)c1OC [Example 198]    182
[2H]C([2H])([2H])CC(=O)c1cnc(Nc2ccc(C(C)(C)O)c(F)n2)cc1Nc1cccc(-c2ncn(C([2H])([2H])[2H])n2)c1OC [Example 202]    469
[2H]C([2H])([2H])CC(=O)c1cnc(Nc2ccc(C(C)(C)O)c(F)n2)cc1Nc1nccc(-c2ncn(C([2H])([2H])[2H])n2)c1OC [Example 201]    458
[2H]C([2H])([2H])CC(=O)c1cnc(NC(=O)C2CC2)cc1Nc1cccc(-c2ncn(C([2H])([2H])[2H])n2)c1OC [Example 195]    185

====

Experiment: Pharmacokinetic study in Sprague Dawley rats
Assay type: in vivo
Details: rat, plasma, iv, I.V. (1 mg/kg)
MEASURED ATTRIBUTE: AUC

[2H]C([2H])([2H])CC(=O)c1cnc(Nc2ccc(C(C)(C)O)c(F)n2)cc1Nc1cccc(-c2ncn(C([2H])([2H])[2H])n2)c1OC    504 ng·h/mL
[2H]C([2H])([2H])CC(=O)c1cnc(Nc2cccc(C#N)n2)cc1Nc1cccc(-c2ncn(C([2H])([2H])[2H])n2)c1OC    1400 ng·h/mL
[2H]C([2H])([2H])CC(=O)c1cnc(NC(=O)C2CC2)cc1Nc1nccc(-c2ncn(C([2H])([2H])[2H])n2)c1OC    1710 ng·h/mL
[2H]C([2H])([2H])CC(=O)c1cnc(Nc2ccc(C(C)(C)O)c(F)n2)cc1Nc1nccc(-c2ncn(C([2H])([2H])[2H])n2)c1OC    533 ng·h/mL
[2H]C([2H])([2H])CC(=O)c1cnc(Nc2cccc(C#N)n2)cc1Nc1nccc(-c2ncn(C([2H])([2H])[2H])n2)c1OC    705 ng·h/mL
[2H]C([2H])([2H])CC(=O)c1cnc(NC(=O)C2CC2)cc1Nc1cccc(-c2ncn(C([2H])([2H])[2H])n2)c1OC    3190 ng·h/mL

====

Assay: Pharmacokinetic study in Sprague Dawley rats
Assay type: in vivo
Conditions: rat, plasma, iv, I.V. (1 mg/kg), read-out: Vdss
Vd: recorded values
MEASURED ATTRIBUTE: Vd (L/kg)

[2H]C([2H])([2H])CC(=O)c1cnc(Nc2ccc(C(C)(C)O)c(F)n2)cc1Nc1cccc(-c2ncn(C([2H])([2H])[2H])n2)c1OC    0.653
[2H]C([2H])([2H])CC(=O)c1cnc(Nc2cccc(C#N)n2)cc1Nc1cccc(-c2ncn(C([2H])([2H])[2H])n2)c1OC    1.1
[2H]C([2H])([2H])CC(=O)c1cnc(Nc2cccc(C#N)n2)cc1Nc1nccc(-c2ncn(C([2H])([2H])[2H])n2)c1OC    3.27
[2H]C([2H])([2H])CC(=O)c1cnc(NC(=O)C2CC2)cc1Nc1nccc(-c2ncn(C([2H])([2H])[2H])n2)c1OC    1.24
[2H]C([2H])([2H])CC(=O)c1cnc(NC(=O)C2CC2)cc1Nc1cccc(-c2ncn(C([2H])([2H])[2H])n2)c1OC    0.824
[2H]C([2H])([2H])CC(=O)c1cnc(Nc2ccc(C(C)(C)O)c(F)n2)cc1Nc1nccc(-c2ncn(C([2H])([2H])[2H])n2)c1OC    1.31

====

Test: Pharmacokinetic study in Sprague Dawley rats
Type: in vivo
Conditions: rat, plasma, Oral (5 mg/kg)
MEASURED ATTRIBUTE: AUC (ng·h/mL)

[2H]C([2H])([2H])CC(=O)c1cnc(Nc2ccc(C(C)(C)O)c(F)n2)cc1Nc1cccc(-c2ncn(C([2H])([2H])[2H])n2)c1OC [Example 202]    210
[2H]C([2H])([2H])CC(=O)c1cnc(Nc2ccc(C(C)(C)O)c(F)n2)cc1Nc1nccc(-c2ncn(C([2H])([2H])[2H])n2)c1OC [Example 201]    499
[2H]C([2H])([2H])CC(=O)c1cnc(Nc2cccc(C#N)n2)cc1Nc1nccc(-c2ncn(C([2H])([2H])[2H])n2)c1OC [Example 199]    650
[2H]C([2H])([2H])CC(=O)c1cnc(NC(=O)C2CC2)cc1Nc1nccc(-c2ncn(C([2H])([2H])[2H])n2)c1OC [Example 200]    3660
[2H]C([2H])([2H])CC(=O)c1cnc(NC(=O)C2CC2)cc1Nc1cccc(-c2ncn(C([2H])([2H])[2H])n2)c1OC [Example 195]    7440
[2H]C([2H])([2H])CC(=O)c1cnc(Nc2cccc(C#N)n2)cc1Nc1cccc(-c2ncn(C([2H])([2H])[2H])n2)c1OC [Example 198]    1190
